experiment: xn = mol fraction of the nth substance listed; settings: 298.15 K, Ring tensiometer, x1 = 0.7
surface tension liquid-gas values by entry
value kind: surface tension liquid-gas (mN/m)

>>> value_measured("COP(=O)([O-])OC.Cn1cc[n+](C)c1 [1,3-dimethylimidazolium dimethylphosphate] + CO")
41.6
>>> value_measured("CCCCOP(=O)([O-])OCCCC.CCCCn1cc[n+](C)c1 [1-butyl-3-methylimidazolium dibutyl phosphate] + O")
29.3
>>> value_measured("CCn1cc[n+](C)c1.COP(=O)([O-])OC [1-ethyl-3-methylimidazolium dimethylphosphate] + CCO")
34
>>> value_measured("CCOP(=O)([O-])OCC.CCn1cc[n+](C)c1 [1-ethyl-3-methylimidazolium diethyl phosphate] + CCO")
31.6
>>> value_measured("CCCCn1cc[n+](CC)c1.CCOP(=O)([O-])OCC [1-butyl-3-ethyl-1H-imidazol-3-ium diethyl phosphate] + CCO")
29.5
>>> value_measured("CCCCn1cc[n+](CC)c1.CCOP(=O)([O-])OCC [1-butyl-3-ethyl-1H-imidazol-3-ium diethyl phosphate] + CO")
31.4
>>> value_measured("CCCCn1cc[n+](C)c1.COP(=O)([O-])OC [1-butyl-3-methyl-1H-imidazolium dimethylphosphate] + CO")
35.9
